# experiment notes: activity coefficient (dimensionless); of the first substance listed, at infinite dilution; xn = mol fraction of the nth substance listed
# condition notes: 333.15 K; Liquid; Chromatography; x1 = 0
value kind: activity coefficient
// no unit, no text: just the number

Task: Name the recorded activity coefficient for CO [methanol] + CN(C)c1cc[n+](COCCCOC[n+]2ccc(N(C)C)cc2)cc1.O=S(=O)([N-]S(=O)(=O)C(F)(F)F)C(F)(F)F.O=S(=O)([N-]S(=O)(=O)C(F)(F)F)C(F)(F)F .
Output: 0.86

Task: Name the recorded activity coefficient for CCC[N+](=O)[O-] [1-nitropropane] + CCCOC[n+]1ccn(Cc2ccccc2)c1.F[B-](F)(F)F .
Output: 1.12

Task: Name the recorded activity coefficient for CCCCCCCCC [nonane] + CCCOC[n+]1ccn(Cc2ccccc2)c1.F[B-](F)(F)F .
Output: 164

Task: Name the recorded activity coefficient for CCC(C)=O [butanone] + N#C[N-]C#N.N#C[N-]C#N.c1ccc(Cn2cc[n+](COCCCOC[n+]3ccn(Cc4ccccc4)c3)c2)cc1 .
Output: 1.55

Task: Name the recorded activity coefficient for C1CCCCCC1 [cycloheptane] + CN(C)c1cc[n+](COCCCOC[n+]2ccc(N(C)C)cc2)cc1.O=S(=O)([N-]S(=O)(=O)C(F)(F)F)C(F)(F)F.O=S(=O)([N-]S(=O)(=O)C(F)(F)F)C(F)(F)F .
Output: 34.9

Task: Name the recorded activity coefficient for C[N+](=O)[O-] [nitromethane] + CCCCCCCCn1cc[n+](COCCCOC[n+]2ccn(CCCCCCCC)c2C)c1C.N#C[N-]C#N.N#C[N-]C#N .
Output: 0.43

Task: Name the recorded activity coefficient for CCc1ccccc1 [ethylbenzene] + CCCOC[n+]1ccc(N(C)C)cc1.O=S(=O)([N-]S(=O)(=O)C(F)(F)F)C(F)(F)F .
Output: 1.53

Task: Name the recorded activity coefficient for C1CCCCC1 [cyclohexane] + CCCOC[n+]1ccn(C)c1.N#C[N-]C#N .
Output: 24.3

Task: Name the recorded activity coefficient for CO [methanol] + CCCCCCCCn1cc[n+](COCCCOC[n+]2ccn(CCCCCCCC)c2C)c1C.O=S(=O)([N-]S(=O)(=O)C(F)(F)F)C(F)(F)F.O=S(=O)([N-]S(=O)(=O)C(F)(F)F)C(F)(F)F .
Output: 0.51

Task: Name the recorded activity coefficient for c1ccsc1 [thiophene] + CCCCCCCCn1cc[n+](COCCCOC[n+]2ccn(CCCCCCCC)c2C)c1C.N#C[N-]C#N.N#C[N-]C#N .
Output: 0.49

Task: Name the recorded activity coefficient for ClC(Cl)(Cl)Cl [tetrachloromethane] + CCCOC[n+]1ccn(Cc2ccccc2)c1.F[B-](F)(F)F .
Output: 4.71

Task: Name the recorded activity coefficient for ClCCl [dichloromethane] + CCCOC[n+]1ccn(C)c1.O=S(=O)([N-]S(=O)(=O)C(F)(F)F)C(F)(F)F .
Output: 0.79

Task: Name the recorded activity coefficient for CCCCCCC [heptane] + CCCCCCCCn1cc[n+](COCCC)c1C.O=S(=O)([N-]S(=O)(=O)C(F)(F)F)C(F)(F)F .
Output: 4.56

---

# experiment notes: activity coefficient (dimensionless); of the first substance listed, at infinite dilution; xn = mol fraction of the nth substance listed
# condition notes: 333.15 K; Liquid; Chromatography; x1 = 0
value kind: activity coefficient
// no unit, no text: just the number

Take a look at these entries with their results.
[[record]]
compound = "CCCCCC [hexane] + CCCCCCCCn1cc[n+](COCCC)c1C.N#C[N-]C#N"
value_kind = "activity coefficient"
test_result = 6.92

[[record]]
compound = "c1ccsc1 [thiophene] + Cn1cc[n+](COCCCOC[n+]2ccn(C)c2)c1.O=S(=O)([N-]S(=O)(=O)C(F)(F)F)C(F)(F)F.O=S(=O)([N-]S(=O)(=O)C(F)(F)F)C(F)(F)F"
value_kind = "activity coefficient"
test_result = 0.78

[[record]]
compound = "CCC(C)CC [3-methylpentane] + CCCCCCCCn1cc[n+](COCCCOC[n+]2ccn(CCCCCCCC)c2C)c1C.O=S(=O)([N-]S(=O)(=O)C(F)(F)F)C(F)(F)F.O=S(=O)([N-]S(=O)(=O)C(F)(F)F)C(F)(F)F"
value_kind = "activity coefficient"
test_result = 3.36


Task: Name the recorded activity coefficient for CCCCCCCCCCCCCC [tetradecane] + CCCOC[n+]1ccn(C)c1.F[B-](F)(F)F .
Output: 2500

Task: Name the recorded activity coefficient for CC(C)CO [2-methyl-1-propanol] + CCCCCCCCn1cc[n+](COCCC)c1C.O=S(=O)([N-]S(=O)(=O)C(F)(F)F)C(F)(F)F .
Output: 1.09

Task: Name the recorded activity coefficient for C[N+](=O)[O-] [nitromethane] + CN(C)c1cc[n+](COCCCOC[n+]2ccc(N(C)C)cc2)cc1.O=S(=O)([N-]S(=O)(=O)C(F)(F)F)C(F)(F)F.O=S(=O)([N-]S(=O)(=O)C(F)(F)F)C(F)(F)F .
Output: 0.39

---

# experiment notes: activity coefficient (dimensionless); of the first substance listed, at infinite dilution; xn = mol fraction of the nth substance listed
# condition notes: 343.15 K; Liquid; Chromatography; x1 = 0
Recorded activity coefficient by entry
// no unit, no text: just the number

Task: Name the recorded activity coefficient for CC1CCCCC1 [methylcyclohexane] + CCCCCCCCn1cc[n+](COCCC)c1C.N#C[N-]C#N .
Output: 4.81

Task: Name the recorded activity coefficient for C1COCCO1 [1,4-dioxane] + CCCOC[n+]1ccn(C)c1.N#C[N-]C#N .
Output: 1.12

Task: Name the recorded activity coefficient for CCCCCCC [heptane] + CN(C)c1cc[n+](COCCCOC[n+]2ccc(N(C)C)cc2)cc1.O=S(=O)([N-]S(=O)(=O)C(F)(F)F)C(F)(F)F.O=S(=O)([N-]S(=O)(=O)C(F)(F)F)C(F)(F)F .
Output: 24.3

Task: Name the recorded activity coefficient for CO [methanol] + CCCOC[n+]1ccn(C)c1.O=S(=O)([N-]S(=O)(=O)C(F)(F)F)C(F)(F)F .
Output: 1.04

Task: Name the recorded activity coefficient for CCC(=O)CC [pentan-3-one] + Cn1cc[n+](COCCCOC[n+]2ccn(C)c2)c1.N#C[N-]C#N.N#C[N-]C#N .
Output: 3.46

Task: Name the recorded activity coefficient for C[N+](=O)[O-] [nitromethane] + CN(C)c1cc[n+](COCCCOC[n+]2ccc(N(C)C)cc2)cc1.O=S(=O)([N-]S(=O)(=O)C(F)(F)F)C(F)(F)F.O=S(=O)([N-]S(=O)(=O)C(F)(F)F)C(F)(F)F .
Output: 0.38

---

# experiment notes: activity coefficient (dimensionless); of the first substance listed, at infinite dilution; xn = mol fraction of the nth substance listed
# condition notes: 333.15 K; Liquid; Chromatography; x1 = 0
value kind: activity coefficient
// no unit, no text: just the number

[[record]]
compound = "CCCCCCC [heptane] + Cn1cc[n+](COCCCOC[n+]2ccn(C)c2)c1.O=S(=O)([N-]S(=O)(=O)C(F)(F)F)C(F)(F)F.O=S(=O)([N-]S(=O)(=O)C(F)(F)F)C(F)(F)F"
value_kind = "activity coefficient"
test_result = 34


Task: Name the recorded activity coefficient for CCCCCCCCC [nonane] + Cn1cc[n+](COCCCOC[n+]2ccn(C)c2)c1.O=S(=O)([N-]S(=O)(=O)C(F)(F)F)C(F)(F)F.O=S(=O)([N-]S(=O)(=O)C(F)(F)F)C(F)(F)F .
Output: 96.7

Task: Name the recorded activity coefficient for C=CCCCC [hex-1-ene] + CCCCCCCCn1cc[n+](COCCC)c1C.O=S(=O)([N-]S(=O)(=O)C(F)(F)F)C(F)(F)F .
Output: 2.38

Task: Name the recorded activity coefficient for C#CCCCCC [1-heptyne] + CCCOC[n+]1ccn(Cc2ccccc2)c1.O=S(=O)([N-]S(=O)(=O)C(F)(F)F)C(F)(F)F .
Output: 2.42

Task: Name the recorded activity coefficient for CCCC(C)=O [pentan-2-one] + N#C[N-]C#N.N#C[N-]C#N.c1ccc(Cn2cc[n+](COCCCOC[n+]3ccn(Cc4ccccc4)c3)c2)cc1 .
Output: 3.05

Task: Name the recorded activity coefficient for C[N+](=O)[O-] [nitromethane] + CCCOC[n+]1ccn(C)c1.O=S(=O)([N-]S(=O)(=O)C(F)(F)F)C(F)(F)F .
Output: 0.53

---

# experiment notes: activity coefficient (dimensionless); of the first substance listed, at infinite dilution; xn = mol fraction of the nth substance listed
# condition notes: 343.15 K; Liquid; Chromatography; x1 = 0
Rule: activity coefficient below 3 gives 1.0, anything at or above gives 0.0.

Field: example entries. Status: answers known.
[[record]]
compound = "CCCO [propan-1-ol] + CCCOC[n+]1ccn(C)c1.N#C[N-]C#N"
category_label = 1.0

[[record]]
compound = "c1ccncc1 [pyridine] + CCCOC[n+]1ccn(C)c1.N#C[N-]C#N"
category_label = 1.0

[[record]]
compound = "C1CCCCCC1 [cycloheptane] + CCCOC[n+]1ccn(Cc2ccccc2)c1.N#C[N-]C#N"
category_label = 0.0

[[record]]
compound = "CCCCCCCCCCCCC [tridecane] + CCCOC[n+]1ccn(C)c1.F[B-](F)(F)F"
category_label = 0.0

[[record]]
compound = "C1CCCCCC1 [cycloheptane] + CN(C)c1cc[n+](COCCCOC[n+]2ccc(N(C)C)cc2)cc1.O=S(=O)([N-]S(=O)(=O)C(F)(F)F)C(F)(F)F.O=S(=O)([N-]S(=O)(=O)C(F)(F)F)C(F)(F)F"
category_label = 0.0

[[record]]
compound = "CCCC(C)=O [pentan-2-one] + Cn1cc[n+](COCCCOC[n+]2ccn(C)c2)c1.N#C[N-]C#N.N#C[N-]C#N"
category_label = 0.0


Task: activity coefficient under 3? Item: C#CCCCC [1-hexyne] + CCCCCCCCn1cc[n+](COCCCOC[n+]2ccn(CCCCCCCC)c2C)c1C.O=S(=O)([N-]S(=O)(=O)C(F)(F)F)C(F)(F)F.O=S(=O)([N-]S(=O)(=O)C(F)(F)F)C(F)(F)F
Output: 1.0

Task: activity coefficient under 3? Item: C1COCCO1 [1,4-dioxane] + CCCCCCCCn1cc[n+](COCCCOC[n+]2ccn(CCCCCCCC)c2C)c1C.O=S(=O)([N-]S(=O)(=O)C(F)(F)F)C(F)(F)F.O=S(=O)([N-]S(=O)(=O)C(F)(F)F)C(F)(F)F
Output: 1.0

Task: activity coefficient under 3? Item: C[N+](=O)[O-] [nitromethane] + CCCOC[n+]1ccn(C)c1.F[B-](F)(F)F
Output: 1.0

Task: activity coefficient under 3? Item: Cc1ccccc1C [1,2-dimethylbenzene] + CCCCCCCCn1cc[n+](COCCC)c1C.N#C[N-]C#N
Output: 1.0

Task: activity coefficient under 3? Item: CC(C)CO [2-methyl-1-propanol] + Cn1cc[n+](COCCCOC[n+]2ccn(C)c2)c1.N#C[N-]C#N.N#C[N-]C#N
Output: 1.0

Task: activity coefficient under 3? Item: c1ccncc1 [pyridine] + Cn1cc[n+](COCCCOC[n+]2ccn(C)c2)c1.O=S(=O)([N-]S(=O)(=O)C(F)(F)F)C(F)(F)F.O=S(=O)([N-]S(=O)(=O)C(F)(F)F)C(F)(F)F
Output: 1.0

Task: activity coefficient under 3? Item: Cc1ccc(C)cc1 [1,4-dimethylbenzene] + Cn1cc[n+](COCCCOC[n+]2ccn(C)c2)c1.O=S(=O)([N-]S(=O)(=O)C(F)(F)F)C(F)(F)F.O=S(=O)([N-]S(=O)(=O)C(F)(F)F)C(F)(F)F
Output: 1.0

Task: activity coefficient under 3? Item: ClC(Cl)(Cl)Cl [tetrachloromethane] + CCCCCCCCn1cc[n+](COCCC)c1C.N#C[N-]C#N
Output: 1.0

Task: activity coefficient under 3? Item: CCCCCCCCCCC [undecane] + CCCCCCCCn1cc[n+](COCCC)c1C.N#C[N-]C#N
Output: 0.0

Task: activity coefficient under 3? Item: ClC(Cl)(Cl)Cl [tetrachloromethane] + Cn1cc[n+](COCCCOC[n+]2ccn(C)c2)c1.N#C[N-]C#N.N#C[N-]C#N
Output: 0.0

Task: activity coefficient under 3? Item: CCCO [propan-1-ol] + CCCOC[n+]1ccn(C)c1.O=S(=O)([N-]S(=O)(=O)C(F)(F)F)C(F)(F)F
Output: 1.0

Task: activity coefficient under 3? Item: Cc1cccc(C)c1 [1,3-dimethylbenzene] + CCCCCCCCn1cc[n+](COCCCOC[n+]2ccn(CCCCCCCC)c2C)c1C.O=S(=O)([N-]S(=O)(=O)C(F)(F)F)C(F)(F)F.O=S(=O)([N-]S(=O)(=O)C(F)(F)F)C(F)(F)F
Output: 1.0
